# System name: Ang II-mediated vasoconstriction (Rattus norvegicus, UniProt P47820)
# Sequence (P47820 36-1313): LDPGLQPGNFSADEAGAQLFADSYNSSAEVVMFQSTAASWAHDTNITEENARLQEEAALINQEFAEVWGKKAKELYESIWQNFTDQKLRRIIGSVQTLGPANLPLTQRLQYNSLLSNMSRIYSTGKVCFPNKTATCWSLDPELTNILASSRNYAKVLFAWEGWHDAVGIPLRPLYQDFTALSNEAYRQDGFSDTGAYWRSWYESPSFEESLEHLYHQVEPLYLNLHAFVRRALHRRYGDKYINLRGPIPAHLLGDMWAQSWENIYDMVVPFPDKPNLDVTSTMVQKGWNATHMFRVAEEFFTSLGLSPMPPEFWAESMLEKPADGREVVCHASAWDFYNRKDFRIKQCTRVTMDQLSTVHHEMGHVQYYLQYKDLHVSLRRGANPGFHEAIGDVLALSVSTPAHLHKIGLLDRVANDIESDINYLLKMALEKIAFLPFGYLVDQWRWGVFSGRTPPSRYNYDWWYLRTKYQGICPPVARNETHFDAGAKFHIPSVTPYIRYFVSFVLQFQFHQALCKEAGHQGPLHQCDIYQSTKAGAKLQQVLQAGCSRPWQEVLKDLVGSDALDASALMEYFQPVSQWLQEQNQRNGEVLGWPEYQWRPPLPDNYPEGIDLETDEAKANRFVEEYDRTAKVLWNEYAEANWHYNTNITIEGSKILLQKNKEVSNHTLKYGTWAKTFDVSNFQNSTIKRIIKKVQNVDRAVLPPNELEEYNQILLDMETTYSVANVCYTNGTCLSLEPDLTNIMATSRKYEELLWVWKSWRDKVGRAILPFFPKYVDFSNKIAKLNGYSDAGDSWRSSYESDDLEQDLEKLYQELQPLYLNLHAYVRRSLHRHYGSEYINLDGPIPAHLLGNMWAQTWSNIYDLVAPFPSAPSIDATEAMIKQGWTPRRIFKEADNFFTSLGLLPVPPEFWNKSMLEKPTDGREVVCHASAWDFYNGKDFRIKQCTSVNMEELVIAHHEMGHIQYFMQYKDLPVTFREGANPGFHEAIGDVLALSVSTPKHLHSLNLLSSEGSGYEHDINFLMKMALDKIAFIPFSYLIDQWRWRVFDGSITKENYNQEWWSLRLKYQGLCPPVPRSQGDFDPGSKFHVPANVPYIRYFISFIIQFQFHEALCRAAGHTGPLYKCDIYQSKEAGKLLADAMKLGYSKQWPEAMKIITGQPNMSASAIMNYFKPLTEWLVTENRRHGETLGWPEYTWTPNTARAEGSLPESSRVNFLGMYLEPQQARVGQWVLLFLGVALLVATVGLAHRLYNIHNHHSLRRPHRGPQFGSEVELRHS
# Protocol details: Ex vivo ACE inhibition assay: Ang II-mediated vasoconstriction of endothelium-denuded thoracic aorta rings
# Condition notes: 0.2 µM Ang I, read-out: EC50 of suppression of Ang II-mediated vasoconstriction
Where a SMILES comes first, the peptide text is derived from it.
So I've got a bunch of compounds here, and I need their pEC50 values.
Numbers only, as −log10 of the molar value.

The examples below pair each entry with its known result.
CC(C)[C@H](NC(=O)[C@@H](N)CC(=O)O)C(=O)N[C@@H](Cc1c[nH]c2ccccc12)C(=O)N[C@@H](Cc1ccc(O)cc1)C(=O)O [DVWY] (H-DVWY-OH) ... 4.17
C[C@@H](O)[C@H](NC(=O)[C@@H](N)Cc1c[nH]c2ccccc12)C(=O)N[C@@H](Cc1ccccc1)C(=O)N[C@@H](CCCNC(=N)N)C(=O)O [WTFR] (H-WTFR-OH) ... 4.43

I have 2 compounds here; please give me pEC50 for each one.
1. NC(=O)CC[C@H](NC(=O)[C@@H](N)Cc1ccccc1)C(=O)O
2. C[C@H](NC(=O)[C@H](CC(=O)O)NC(=O)[C@@H](N)Cc1ccccc1)C(=O)N[C@@H](CCCNC(=N)N)C(=O)N[C@H](C(=O)O)[C@@H](C)O [FDART] (H-FDART-OH)

1. 4.07
2. 4.27

Recorded values, source paper PMC4164440.
